Cited source: paper PMC4072508

test.target: Bcl-xL, Q07817
Sequence (Q07817 1-209): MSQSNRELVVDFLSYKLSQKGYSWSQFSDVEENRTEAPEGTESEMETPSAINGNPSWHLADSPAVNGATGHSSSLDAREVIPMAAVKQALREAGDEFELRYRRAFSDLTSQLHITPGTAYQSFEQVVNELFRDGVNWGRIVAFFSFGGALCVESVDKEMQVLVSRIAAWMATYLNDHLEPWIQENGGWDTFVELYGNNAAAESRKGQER
protocol.description: peptide SPOT array, c-Myc-tagged receptor at 1 uM or 100 nM, anti-c-Myc-Cy3
outcome.measure: SPOT signal as a fraction of Bim BH3's signal on the same receptor and array
Quick one: just the number, no unit, thanks!

Input: Which SPOT signal as a fraction of Bim BH3's signal on the same receptor and array is reported for this binder? RVIPHDGAEDLWIQAQELVRNMKENL [PLB1]
Output: 0.03

Input: Any idea what SPOT signal as a fraction of Bim BH3's signal on the same receptor and array was measured for DFMGRTFAKPLVKMLDEAYCPPRFPP [OTOF] ?
Output: 0.17

Input: Entry GTKSQLLAKRLLDLSNEGFTNWEFMT [PCSK6] has what SPOT signal as a fraction of Bim BH3's signal on the same receptor and array?
Output: 0.03

Input: For ESEVQHLSQKLYDWSDSQNLKITGKA [ANKRD32] , what is its reported SPOT signal as a fraction of Bim BH3's signal on the same receptor and array?
Output: 0.03

Input: Recorded SPOT signal as a fraction of Bim BH3's signal on the same receptor and array for NVGCQQDSEELLKLATSISETLEEKP [UBA6] , please?
Output: 0.02

Input: // lookup SPOT signal as a fraction of Bim BH3's signal on the same receptor and array for LRCEMASTGEVACFGEGIHTAFLKAM [CPS1]
Output: 0.03

Input: Item under review: PYLSKHRADRMRRLGDFLNQESFDLA [SMPD2] . Reported SPOT signal as a fraction of Bim BH3's signal on the same receptor and array?
Output: 1.3

Input: GET /values?readout=SPOT signal as a fraction of Bim BH3's signal on the same receptor and array&item= FGEYSGISENIILVGDDFWIPETSFI [ROS1]
Output: 0.07

Input: Can you share its SPOT signal as a fraction of Bim BH3's signal on the same receptor and array? I mean this binder: AAVGNHVAKLLQSIGQAPESISEKEL [NAE1]
Output: 0.03

Input: What value of SPOT signal as a fraction of Bim BH3's signal on the same receptor and array has been recorded for this entry: VFDDLRGSVSLSWVGDSTGVILVLTT [SORT1]
Output: 0.02

Input: Form field: reported SPOT signal as a fraction of Bim BH3's signal on the same receptor and array of NATHEEVVHLLRNAGDEVTITVEYLR [SNTG2]
Output: 0.04

Input: # get_value(readout='SPOT signal as a fraction of Bim BH3's signal on the same receptor and array', item= YIVLGLRKTTDQKVGKEVAELVGRVG [NLRX1] )
Output: 0.32

Input: Any idea what its SPOT signal as a fraction of Bim BH3's signal on the same receptor and array is? The binder is LCKEKPTTALLDKVADNLAIQLAAVT [ILF3]
Output: 0.03

Input: Entry VTLLSEVEKMDSNFGDCVQYKEIVKN [SYNE1] : reported SPOT signal as a fraction of Bim BH3's signal on the same receptor and array = ?
Output: 0.09

Input: Please look up its SPOT signal as a fraction of Bim BH3's signal on the same receptor and array: RVCPYYLSRNLKQQADIIFMPYNYLL [RTEL1]
Output: 2.13

Input: Which SPOT signal as a fraction of Bim BH3's signal on the same receptor and array value belongs to THFLDEEVKLIKKMLDHLTNLHRLGG [FTL] ?
Output: 0.07

Input: // returns reported SPOT signal as a fraction of Bim BH3's signal on the same receptor and array for input ALTVKEMAQMLQSFGTELAETELPDD [MCF2]
Output: 0.03

Input: I'd like to know its SPOT signal as a fraction of Bim BH3's signal on the same receptor and array. The binder in question is AKFLLYLGHSDSTWGDRMWHFAVSVF [SLC40A1]
Output: 0.03

Input: State the recorded SPOT signal as a fraction of Bim BH3's signal on the same receptor and array for this entry: RVSWNITGTVDASSGDDGCVRLWKAN [SEH1L]
Output: 0.07

Input: Query (binder): PSECETLGSNLGHNLDLLNENNILAK [ZFP90] ; field requested: SPOT signal as a fraction of Bim BH3's signal on the same receptor and array
Output: 0.1

Input: Quick check: SPOT signal as a fraction of Bim BH3's signal on the same receptor and array of LGDGPKLVRELFRVAEEHAPSIVFID [PSMC1] ?
Output: 0.04

Input: Give the measured SPOT signal as a fraction of Bim BH3's signal on the same receptor and array of DHTDGVVACADGLIGDLCTAFGKDVL [KPNB1] .
Output: 0.02

Input: Please report the recorded SPOT signal as a fraction of Bim BH3's signal on the same receptor and array for NGQFLGDALDLQKWAHEVWDIVDIKP [PPIL6] .
Output: 0.03

Input: Reported SPOT signal as a fraction of Bim BH3's signal on the same receptor and array, binder APEEDFFSIHIRIVGDWTEGLFNACG [CYBB] : ____
Output: 0.06

Input: Could you share which SPOT signal as a fraction of Bim BH3's signal on the same receptor and array value was measured for LSIIYTLVEIFQNILDTNLADFTAGL [SLC26A4] ?
Output: 0.06

Input: # input binder: VYILRKAARRDAQVSRAAGVRVGLLS [CACNA1G] ; wanted: its SPOT signal as a fraction of Bim BH3's signal on the same receptor and array
Output: 0.94

Input: Give the measured SPOT signal as a fraction of Bim BH3's signal on the same receptor and array of SQGDKRVAFFMRKGADCLSKWVGESE [ATAD2] .
Output: 0.13

Input: Given the entry SQRGTDFSVLLSSAGDSFSQFRFAEE [AVEN] , report its measured SPOT signal as a fraction of Bim BH3's signal on the same receptor and array.
Output: 0.16
